Could you please report measured activity at 5000 µM for the items listed next?
Biological target: PfCRT^Dd2 (Plasmodium falciparum, UniProt Q9N623, A220S/I356T/K76T/M74I/N326S/N75E/Q271E/R371I)
Sequence (Q9N623 whole entry A220S/I356T/K76T/M74I/N326S/N75E/Q271E/R371I): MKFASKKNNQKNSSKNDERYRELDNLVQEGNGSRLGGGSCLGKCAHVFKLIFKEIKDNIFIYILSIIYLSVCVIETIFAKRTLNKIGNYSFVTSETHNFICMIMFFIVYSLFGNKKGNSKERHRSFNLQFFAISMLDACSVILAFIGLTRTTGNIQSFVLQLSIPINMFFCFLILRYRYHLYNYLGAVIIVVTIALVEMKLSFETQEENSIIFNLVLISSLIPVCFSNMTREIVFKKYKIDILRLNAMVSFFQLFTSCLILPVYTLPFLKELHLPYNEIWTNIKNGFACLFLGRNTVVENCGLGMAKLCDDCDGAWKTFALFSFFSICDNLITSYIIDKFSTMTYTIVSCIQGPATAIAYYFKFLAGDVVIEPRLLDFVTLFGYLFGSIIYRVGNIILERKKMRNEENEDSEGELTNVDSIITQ
Experiment: cell-based
Format: cell-based
Conditions: […], pH 5.5, read-out: Uptake of [3H]CQ (% PfCRTDd2 control), trans-stimulation, PfCRTDd2, total [3H]CQ transport; [test solute]i = 5 mM (intracellular); mean ± SEM; SEM
# unit: % | format: bare number

Ask: Dear colleague, I am looking for the recorded activity at 5000 µM of the following compound: NC(=O)CC[C@H](N)C(=O)O [L-glutamine]
Result: 101

Ask: Would you mind telling me what activity at 5000 µM value was observed for CC(C)[C@H](N)C(=O)O [L-valine] ?
Result: 99

Ask: What does the data say about its activity at 5000 µM? Entry: N[C@@H](CO)C(=O)O [L-serine]
Result: 99

Ask: Name the reported activity at 5000 µM value associated with the compound N[C@@H](Cc1c[nH]c2ccccc12)C(=O)O [L-tryptophan]
Result: 100

Ask: Sample CC[C@H](C)[C@H](N)C(=O)O [L-isoleucine] — what was its activity at 5000 µM?
Result: 96

Ask: Consider the compound shown here: NCCCC[C@H](N)C(=O)O [L-lysine] What is its recorded activity at 5000 µM?
Result: 99

Ask: Suppose we examine the compound N[C@@H](Cc1ccccc1)C(=O)O [L-phenylalanine] ; what activity at 5000 µM value has been reported?
Result: 101

Ask: Find the recorded activity at 5000 µM belonging to N[C@@H](Cc1c[nH]cn1)C(=O)O [L-histidine] and report it.
Result: 101

Ask: Sample N[C@@H](Cc1ccc(O)cc1)C(=O)O [L-tyrosine] — what was its activity at 5000 µM?
Result: 101

Ask: Fill in the blank: the reported activity at 5000 µM of C[C@H](N)C(=O)O [L-alanine] is ____.
Result: 97

Ask: Quick one: activity at 5000 µM of N=C(N)NCCC[C@H](N)C(=O)O [L-arginine] ?
Result: 100

Ask: Consider the compound N[C@@H](CCC(=O)O)C(=O)O [L-glutamic acid] and give its measured activity at 5000 µM.
Result: 101

Ask: Report activity at 5000 µM for C[C@@H](O)[C@H](N)C(=O)O [L-threonine] please.
Result: 98

Ask: Need activity at 5000 µM, item N[C@@H](CS)C(=O)O [L-cysteine]
Result: 99

Ask: Look up activity at 5000 µM for this compound: CC(C)C[C@H](N)C(=O)O [L-leucine]
Result: 97

Ask: Could you tell me which activity at 5000 µM is on file for CSCC[C@H](N)C(=O)O [L-methionine] ?
Result: 100

----------
Molecular target: PfCRT^Ecu1110 (Plasmodium falciparum, UniProt Q9N623, A220S/I356L/K76T/N326D)
Experiment: cell-based
Format: cell-based
Details: [test solute]i = 45 mM (intracellular; 30 mM for some solutes due to solubility); PfCRTEcu1110 oocytes; normalised to oocyte type control
METRIC NAME: PfCRT-mediated [3H]CQ transport, trans-stimulation (% PfCRTEcu1110 control)
Give just the number in % PfCRTEcu1110 control; leave the unit off.

Ask: Any idea what PfCRT-mediated [3H]CQ transport, trans-stimulation (% PfCRTEcu1110 control) was measured for DLDDALDK [DK-8] ?
Result: 97

Ask: Which PfCRT-mediated [3H]CQ transport, trans-stimulation (% PfCRTEcu1110 control) is reported for this substance? LSDLHAHK [LK-8]
Result: 98

Ask: Record request: PfCRT-mediated [3H]CQ transport, trans-stimulation (% PfCRTEcu1110 control) value, item HVDDMPN [HN-7]
Result: 140

Ask: Name the recorded PfCRT-mediated [3H]CQ transport, trans-stimulation (% PfCRTEcu1110 control) for LSFPTTK [LK-7] .
Result: 93

Ask: Requested field: PfCRT-mediated [3H]CQ transport, trans-stimulation (% PfCRTEcu1110 control). Item: VVYPWTQR [VR-8]
Result: 98

Ask: Suppose we examine the substance AEALERMF [AF-8] ; what PfCRT-mediated [3H]CQ transport, trans-stimulation (% PfCRTEcu1110 control) value has been reported?
Result: 98

Ask: Bench note: what PfCRT-mediated [3H]CQ transport, trans-stimulation (% PfCRTEcu1110 control) did DMPNALS [DS-7, host-derived peptide upstream of PL-4] show?
Result: 135

Ask: What does the record list as PfCRT-mediated [3H]CQ transport, trans-stimulation (% PfCRTEcu1110 control) for LHVDPENF [LF-8] ?
Result: 95

Ask: For DTSLKPIS [DS-8] , what is its reported PfCRT-mediated [3H]CQ transport, trans-stimulation (% PfCRTEcu1110 control)?
Result: 140

Ask: Field request: PfCRT-mediated [3H]CQ transport, trans-stimulation (% PfCRTEcu1110 control) | item: HVDDMPNA [HA-8]
Result: 99

----------
Biological target: PfCRT^3D7 in C2^GC03 parasites (Plasmodium falciparum)
Construct: PfCRT also functions as a peptide transporter within its native environment of the DV membrane; expressed in transfected cells; host or cells: P. falciparum pfcrt transfectant line C2^GC03 (saponin-isolated trophozoites)
Assay: P. falciparum H+-efflux assay (rate of DV alkalinisation after concanamycin A)
Assay type: cell-based
Conditions: C2GC03; test solute 10 μM
METRIC NAME: Effect on rate of DV alkalinisation / H+ leak (in words)

Reference set (4 entries):
{"TEST SMILES": "CC(=O)N[C@@H](CC(C)C)C(=O)N[C@@H](CC(C)C)C(=O)N[C@H](C=O)CCCNC(=N)N", "READING": "caused a H^+ leak"}
{"TEST SMILES": "CC(C)c1nc(CN(C)C(=O)N[C@H](C(=O)N[C@@H](Cc2ccccc2)C[C@H](O)[C@H](Cc2ccccc2)NC(=O)OCc2cncs2)C(C)C)cs1", "READING": "without effect"}
{"TEST SMILES": "CC(C)C[C@H](NC(=O)[C@H]1O[C@@H]1C(=O)O)C(=O)NCCCCN=C(N)N", "READING": "caused a H^+ leak"}
{"TEST SMILES": "Cc1cccc(C)c1OCC(=O)N[C@@H](Cc1ccccc1)[C@@H](O)C[C@H](Cc1ccccc1)NC(=O)[C@H](C(C)C)N1CCCNC1=O", "READING": "without effect"}

Moving on to the next compound.
Ask: Looking for the measured Effect on rate of DV alkalinisation / H+ leak (in words) of "N[C@@H](Cc1c[nH]cn1)C(=O)O" , can you help?
Result: without effect

----------
Exercise: state measured PfCRT-mediated [3H]CQ transport, cis-inhibition (% PfCRTEcu1110 control) for each of the substances provided.
Target: PfCRT^Ecu1110 (Plasmodium falciparum, UniProt Q9N623, A220S/I356L/K76T/N326D)
Assay: [3H]CQ uptake into Xenopus oocytes, cis-inhibition by unlabelled solute
Format: cell-based
Conditions: [test solute] = 0.5 mM; PfCRTEcu1110 oocytes; background [3H]CQ accumulation subtracted; normalised to oocyte type control
Please respond with the number in % PfCRTEcu1110 control and leave the unit unwritten.

Ask: Given the substance DLDDALDK [DK-8] , what is its reported PfCRT-mediated [3H]CQ transport, cis-inhibition (% PfCRTEcu1110 control)?
Result: 49

Ask: I'd like to know its PfCRT-mediated [3H]CQ transport, cis-inhibition (% PfCRTEcu1110 control). The substance in question is VVYPWTQR [VR-8]
Result: 42

Ask: GET /values?readout=PfCRT-mediated [3H]CQ transport, cis-inhibition (% PfCRTEcu1110 control)&item= HVDDMPNA [HA-8]
Result: 50

Ask: Using the record for AEALERMF [AF-8] , report its PfCRT-mediated [3H]CQ transport, cis-inhibition (% PfCRTEcu1110 control).
Result: 52

Ask: Report PfCRT-mediated [3H]CQ transport, cis-inhibition (% PfCRTEcu1110 control) for DMPNALS [DS-7, host-derived peptide upstream of PL-4] please.
Result: 51

Ask: PfCRT-mediated [3H]CQ transport, cis-inhibition (% PfCRTEcu1110 control) lookup needed for VDEVGG [VG-6] , thanks.
Result: 61

Ask: Return reported PfCRT-mediated [3H]CQ transport, cis-inhibition (% PfCRTEcu1110 control); argument: LSFPTTK [LK-7]
Result: 47

Ask: Data request, read-out PfCRT-mediated [3H]CQ transport, cis-inhibition (% PfCRTEcu1110 control), for VDPVNFK [VK-7]
Result: 40

Ask: What does the data say about its PfCRT-mediated [3H]CQ transport, cis-inhibition (% PfCRTEcu1110 control)? Entry: EFTPPVQ [EQ-7]
Result: 44

Ask: Query (substance): HAGEYG [HG-6] ; field requested: PfCRT-mediated [3H]CQ transport, cis-inhibition (% PfCRTEcu1110 control)
Result: 35

Ask: I have this substance here, HVDPENFRL [HL-9] , and I need its recorded PfCRT-mediated [3H]CQ transport, cis-inhibition (% PfCRTEcu1110 control).
Result: 41

Ask: Would you mind telling me what PfCRT-mediated [3H]CQ transport, cis-inhibition (% PfCRTEcu1110 control) value was observed for HVDDMP [HP-6] ?
Result: 40

Ask: Returns the measured PfCRT-mediated [3H]CQ transport, cis-inhibition (% PfCRTEcu1110 control) for the input substance. Input: LHVDPENF [LF-8]
Result: 31

Ask: Need PfCRT-mediated [3H]CQ transport, cis-inhibition (% PfCRTEcu1110 control), item DTSLKPIS [DS-8]
Result: 57

Ask: Fill in: PfCRT-mediated [3H]CQ transport, cis-inhibition (% PfCRTEcu1110 control) of EFTPPVQA [EA-8] is ___
Result: 58

Ask: Which value of PfCRT-mediated [3H]CQ transport, cis-inhibition (% PfCRTEcu1110 control) has been reported for KEFTPPVQA [KA-9] in the records?
Result: 48

Ask: Fill in: PfCRT-mediated [3H]CQ transport, cis-inhibition (% PfCRTEcu1110 control) of DLHAHKLR [DR-8] is ___
Result: 58
